Hello, the source for this data is the supplement of paper PMC8728848, in case you need it.

target_entity: Fuc(a1-2)[GalNAc(a1-3)]Gal(b1-3)GlcNAc(b1-6)GalNAc
test_description: glycan array binding signal (z-score within array); higher = stronger binding
condition_context: glycan notation: IUPAC condensed, linker removed
Only a selection was taken, and the strongest signals are over-represented in it overall.
recorded_metric: glycan array binding signal (z-score)
The response must contain the number and no unit.

Task: Endpoint output: glycan array binding signal (z-score) of Clec12b (Mus musculus), Q149M0 (protein) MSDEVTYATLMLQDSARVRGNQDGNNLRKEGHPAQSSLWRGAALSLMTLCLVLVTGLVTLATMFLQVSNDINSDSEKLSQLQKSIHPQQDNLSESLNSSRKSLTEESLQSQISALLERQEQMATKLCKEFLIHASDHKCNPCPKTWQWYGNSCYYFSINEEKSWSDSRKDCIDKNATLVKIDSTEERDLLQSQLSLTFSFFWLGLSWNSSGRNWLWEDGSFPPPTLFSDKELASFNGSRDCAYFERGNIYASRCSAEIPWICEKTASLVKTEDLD . Value?
Result: 4.57
